Biological target: recombinant PRL-2 (Homo sapiens)
Construct: 6xHis (N, cleaved yes); made in house; host or cells: E. coli One Shot BL21 Star
Sequence (Q12974 1-167): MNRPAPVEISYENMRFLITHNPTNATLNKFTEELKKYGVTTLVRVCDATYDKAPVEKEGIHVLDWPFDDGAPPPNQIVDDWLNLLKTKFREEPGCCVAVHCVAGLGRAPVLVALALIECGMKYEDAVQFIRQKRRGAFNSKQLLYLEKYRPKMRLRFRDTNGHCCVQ
Assay: In vitro phosphatase assay (DiFMUP hydrolysis), PRL-2;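 note: PRL-2 activity read as DiFMUP hydrolysis after 20 min at room temperature with drug, enzyme first pre-reduced at 4 °C for 20 min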
Format: biochemical
Details: FDA-approved drug screen; compared to DMSO
PROPERTY: % Phosphatase Activity (compared to DMSO) PRL-2 (%)

COMPOUND: C=CC1=C(C(=O)O)N2C(=O)[C@@H](NC(=O)/C(=N\OCC(=O)O)c3csc(N)n3)[C@H]2SC1 [Cefixime]
TARGET SYSTEM: recombinant PRL-2 (Homo sapiens)
NUMBER: 90
--
COMPOUND: NCC[C@H](O)C(=O)N[C@@H]1C[C@H](N)[C@@H](O[C@H]2O[C@H](CN)[C@@H](O)[C@H](O)[C@H]2O)[C@H](O)[C@H]1O[C@H]1O[C@H](CO)[C@@H](O)[C@H](N)[C@H]1O [Amikacin disulfate]
TARGET SYSTEM: recombinant PRL-2 (Homo sapiens)
NUMBER: 152
--
COMPOUND: CC(C)[N+]1(C)[C@@H]2CC[C@H]1C[C@@H](OC(=O)C(CO)c1ccccc1)C2 (stereo partly drawn) [Ipratropium Bromide]
TARGET SYSTEM: recombinant PRL-2 (Homo sapiens)
NUMBER: 93
--
COMPOUND: CCN(CC)Cc1cc(Nc2ccnc3cc(Cl)ccc23)ccc1O.Cl.Cl.O.O [Amodiaquin (dihydrochloride dihydrate)]
TARGET SYSTEM: recombinant PRL-2 (Homo sapiens)
NUMBER: 74
--
COMPOUND: O=C(Nc1nc2cccc(-c3ccc(CN4CCS(=O)(=O)CC4)cc3)n2n1)C1CC1 [Filgotinib (GLPG0634)]
TARGET SYSTEM: recombinant PRL-2 (Homo sapiens)
NUMBER: 81
--
COMPOUND: Oc1c(I)cc(I)c2cccnc12 [Diiodohydroxyquinoline]
TARGET SYSTEM: recombinant PRL-2 (Homo sapiens)
NUMBER: 108

* * *

Target: recombinant PRL-3 (Homo sapiens, UniProt O75365)
Construct: 6xHis (N, cleaved yes); made in house; host or cells: E. coli One Shot BL21 Star
Sequence (O75365 whole entry): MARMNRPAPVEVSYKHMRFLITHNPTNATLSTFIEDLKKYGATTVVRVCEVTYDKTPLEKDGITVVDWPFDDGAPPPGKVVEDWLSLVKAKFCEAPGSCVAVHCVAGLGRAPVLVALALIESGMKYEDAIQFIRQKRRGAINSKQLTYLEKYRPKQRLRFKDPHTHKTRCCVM
Experiment: In vitro phosphatase assay (DiFMUP hydrolysis), PRL-3; note: test concentration or dose not given here
Format: biochemical
Settings: FDA-approved drug screen; compared to DMSO
Where a name gives a salt, the structure may show the parent alone.
PROPERTY: % Phosphatase Activity (compared to DMSO) PRL-3 (%)

MOLECULE: CCN(C)C(=O)Oc1cccc([C@H](C)N(C)C)c1 [Rivastigmine Tartrate]
TARGET SYSTEM: recombinant PRL-3 (Homo sapiens, UniProt O75365)
NUMBER: 79

MOLECULE: FC(F)(F)c1ccc(CNc2ccc(Cc3c[nH]c4ncc(Cl)cc34)cn2)cn1
TARGET SYSTEM: recombinant PRL-3 (Homo sapiens, UniProt O75365)
NUMBER: 101

MOLECULE: O=C(O)CCCC[C@@H]1SC[C@@H]2NC(=O)N[C@@H]21
TARGET SYSTEM: recombinant PRL-3 (Homo sapiens, UniProt O75365)
NUMBER: 86

MOLECULE: C[C@]12CC[C@@H]3c4ccc(O)cc4CC[C@H]3[C@@H]1CC[C@@H]2OC(=O)CCC1CCCC1 [Estradiol Cypionate]
TARGET SYSTEM: recombinant PRL-3 (Homo sapiens, UniProt O75365)
NUMBER: 74

MOLECULE: C[C@H]1C[C@H]2[C@@H]3CCC4=CC(=O)C=C[C@]4(C)[C@H]3C(=O)C[C@]2(C)[C@@]1(O)C(=O)CO
TARGET SYSTEM: recombinant PRL-3 (Homo sapiens, UniProt O75365)
NUMBER: 78

MOLECULE: NC(=O)N1CCC(CC(=O)N2CCC([C@H]3c4ncc(Br)cc4CCc4cc(Cl)cc(Br)c43)CC2)CC1
TARGET SYSTEM: recombinant PRL-3 (Homo sapiens, UniProt O75365)
NUMBER: 97

MOLECULE: Cc1nc(NC(=O)N2CCC[C@H]2C(N)=O)sc1-c1ccnc(C(C)(C)C(F)(F)F)c1
TARGET SYSTEM: recombinant PRL-3 (Homo sapiens, UniProt O75365)
NUMBER: 90

MOLECULE: CCN(CCO)CCCOc1ccc2c(Nc3cc(CC(=O)Nc4cccc(F)c4)[nH]n3)ncnc2c1
TARGET SYSTEM: recombinant PRL-3 (Homo sapiens, UniProt O75365)
NUMBER: 76

MOLECULE: CC[N+](CC)(CC)CCOc1cccc(OCC[N+](CC)(CC)CC)c1OCC[N+](CC)(CC)CC [Gallamine Triethiodide]
TARGET SYSTEM: recombinant PRL-3 (Homo sapiens, UniProt O75365)
NUMBER: 84

MOLECULE: Nc1[nH]c(=O)ncc1F
TARGET SYSTEM: recombinant PRL-3 (Homo sapiens, UniProt O75365)
NUMBER: 74

MOLECULE: CC1(C)O[C@@H]2C[C@H]3[C@@H]4C[C@H](F)C5=CC(=O)C=C[C@]5(C)[C@@]4(F)[C@@H](O)C[C@]3(C)[C@]2(C(=O)CO)O1 [Fluocinolone Acetonide]
TARGET SYSTEM: recombinant PRL-3 (Homo sapiens, UniProt O75365)
NUMBER: 82
